Tested on: Eschrichia coli
protocol: Turbidity assay (TSB tubes, plated out)
Assay type: cell-based
Design: key: no-growth (NG) which corresponds with excellent inhibitory activity; partial growth (PG) which corresponds with good inhibitory activity; complete growth (CG) which corresponds with little or no inhibitory activity
measurement-conditions: TSB tube with 1.0 mL sample solution (100 mg/mL) and 50 μL 24-hour culture; after 24 hours plated, incubated 24 hours
quantity-name: colony growth category, Eschrichia coli

See these solved cases before continuing.
- compound: "CC(=O)[O-].[Na+] [Sample 15, Sodium Acetate]"
  colony growth category, Eschrichia coli: "NG"
- compound: "O=S(=O)([O-])[O-].[Zn+2] [Sample 4, Zinc Sulfate]"
  colony growth category, Eschrichia coli: "CG"
- compound: "[Cl-].[Cl-].[Zn+2] [Sample 1, Zinc Chloride]"
  colony growth category, Eschrichia coli: "PG"
- compound: "Cc1cc(NS(=O)(=O)c2ccc(N)cc2)no1"
  colony growth category, Eschrichia coli: "CG"

Turning now to a further compound:
The compound identified as NCC(=O)[O-].NCC(=O)[O-].[Zn+2] [Sample 5, Zinc Bis-Glycinate] registered its colony growth category, Eschrichia coli at NG

----------
Test system: Staphlococcus aureus
protocol: Zone inhibition assay (filter paper disc area diffusion)
Format: cell-based
measurement-conditions: distance from edge of disc to bacterial growth; discs saturated with 100 mg/ml solution (antibiotic control discs 5-30 μg); 24 hours at 37° C.
Everything with inhibitory zone, Staphlococcus aureus lower than 4 millimeters is Criterion not met; everything else, including exactly 4 millimeters, is Criterion met.

Q: Kindly determine if inhibitory zone, Staphlococcus aureus recorded for `CN(C)[C@@H]1C(O)=C(C(N)=O)C(=O)[C@@]2(O)C(O)=C3C(=O)c4c(O)cccc4[C@@](C)(O)[C@H]3C[C@@H]12` is above or exactly 4 millimeters.
Result: Criterion met

Q: Kindly determine if inhibitory zone, Staphlococcus aureus recorded for O=C([O-])CC(O)(CC(=O)[O-])C(=O)[O-].O=C([O-])CC(O)(CC(=O)[O-])C(=O)[O-].[Zn+2].[Zn+2].[Zn+2] [Sample 2, Zinc Citrate] is above or exactly 4 millimeters.
Result: Criterion not met

Q: Kindly determine if inhibitory zone, Staphlococcus aureus recorded for [Cl-].[Cl-].[Zn+2] [Sample 1, Zinc Chloride] is above or exactly 4 millimeters.
Result: Criterion met

----------
Tested on: Staphlococcus aureus
protocol: Turbidity assay (TSB tubes, plated out)
Type: cell-based
Design: key: no-growth (NG) which corresponds with excellent inhibitory activity; partial growth (PG) which corresponds with good inhibitory activity; complete growth (CG) which corresponds with little or no inhibitory activity
measurement-conditions: TSB tube with 1.0 mL sample solution (100 mg/mL) and 50 μL 24-hour culture; after 24 hours plated, incubated 24 hours
quantity-name: colony growth category, Staphlococcus aureus

- molecule: "CC(=O)[O-].[Na+] [Sample 15, Sodium Acetate]"
  experimental-system: "Staphlococcus aureus"
  result: "NG"
- molecule: "Cc1cc(NS(=O)(=O)c2ccc(N)cc2)no1"
  experimental-system: "Staphlococcus aureus"
  result: "CG"
- molecule: "[Cl-].[Cl-].[Zn+2] [Sample 1, Zinc Chloride]"
  experimental-system: "Staphlococcus aureus"
  result: "PG"
- molecule: "O=S(=O)([O-])[O-].[Zn+2] [Sample 4, Zinc Sulfate]"
  experimental-system: "Staphlococcus aureus"
  result: "CG"

----------
Tested on: Eschrichia coli
protocol: Zone inhibition assay (filter paper disc area diffusion)
Format: cell-based
measurement-conditions: distance from edge of disc to bacterial growth; discs saturated with 100 mg/ml solution (antibiotic control discs 5-30 μg); 24 hours at 37° C.
Everything with inhibitory zone, Eschrichia coli lower than 4 millimeters is false (0); everything else, including exactly 4 millimeters, is true (1).

Examples from the recorded data:
- molecule: "CC(=O)[O-].CC(=O)[O-].[Zn+2] [Sample 3, Zinc Acetate]"
  experimental-system: "Eschrichia coli"
  category-label: "false (0)"
- molecule: "NCC(=O)[O-].NCC(=O)[O-].[Zn+2] [Sample 5, Zinc Bis-Glycinate]"
  experimental-system: "Eschrichia coli"
  category-label: "false (0)"

Turning now to a further molecule:
Q: Kindly determine if inhibitory zone, Eschrichia coli recorded for O=C([O-])CC(O)(CC(=O)[O-])C(=O)[O-].O=C([O-])CC(O)(CC(=O)[O-])C(=O)[O-].[Zn+2].[Zn+2].[Zn+2] [Sample 2, Zinc Citrate] is above or exactly 4 millimeters.
Result: false (0)

----------
System: Staphlococcus aureus
protocol: Zone inhibition assay (filter paper disc area diffusion)
Assay type: cell-based
measurement-conditions: distance from edge of disc to bacterial growth; discs saturated with 100 mg/ml solution (antibiotic control discs 5-30 μg); 24 hours at 37° C.
Everything with inhibitory zone, Staphlococcus aureus lower than 5 millimeters is N; everything else, including exactly 5 millimeters, is Y.

Examples from the recorded data:
- compound: "CC(=O)[O-].CC(=O)[O-].[Zn+2] [Sample 3, Zinc Acetate]"
  category-label: "N"
- compound: "CC1(C)S[C@@H]2[C@H](NC(=O)[C@H](N)c3ccc(O)cc3)C(=O)N2[C@H]1C(=O)O"
  category-label: "Y"
- compound: "O=C([O-])CCCCC1CCSS1.O=C([O-])CCCCC1CCSS1.[Zn+2] (centres unmarked) [Sample 6, Zinc Lipoate]"
  category-label: "N"
- compound: "NC[C@@H]1O[C@H](O[C@H]2[C@@H](O)[C@H](O[C@@H]3[C@@H](O)[C@H](N)C[C@H](N)[C@H]3O[C@H]3O[C@H](CN)[C@@H](O)[C@H](O)[C@H]3N)O[C@@H]2CO)[C@H](N)[C@@H](O)[C@@H]1O"
  category-label: "Y"
- compound: "NCC(=O)[O-].NCC(=O)[O-].[Zn+2] [Sample 5, Zinc Bis-Glycinate]"
  category-label: "N"

Q: Kindly determine if inhibitory zone, Staphlococcus aureus recorded for O=S(=O)([O-])[O-].[Zn+2] [Sample 4, Zinc Sulfate] is above or exactly 5 millimeters.
Result: N

Q: Kindly determine if inhibitory zone, Staphlococcus aureus recorded for `O=C(O)c1cn(C2CC2)c2cc(N3CCNCC3)c(F)cc2c1=O` is above or exactly 5 millimeters.
Result: Y

Q: Kindly determine if inhibitory zone, Staphlococcus aureus recorded for `Cc1cc(NS(=O)(=O)c2ccc(N)cc2)no1` is above or exactly 5 millimeters.
Result: N

----------
Test system: Eschrichia coli
protocol: Zone inhibition assay (filter paper disc area diffusion)
Format: cell-based
measurement-conditions: distance from edge of disc to bacterial growth; discs saturated with 100 mg/ml solution (antibiotic control discs 5-30 μg); 24 hours at 37° C.
Text: Two methods were used to examine whether an inhibitory effect from the zinc containing compounds was observable and if there was an inhibitory effect, whether the effect was bactericidal (bacteria-killing) or bacteriostatic (bacterial-inhibiting) in nature. […]
quantity-name: inhibitory zone, Eschrichia coli (millimeters)
One number for each entry, in millimeters.

- compound: "CC1(C)S[C@@H]2[C@H](NC(=O)[C@H](N)c3ccc(O)cc3)C(=O)N2[C@H]1C(=O)O"
  inhibitory zone, Eschrichia coli / millimeters: 3.5
- compound: "O=C(O)c1cn(C2CC2)c2cc(N3CCNCC3)c(F)cc2c1=O"
  inhibitory zone, Eschrichia coli / millimeters: 5
- compound: "NC[C@@H]1O[C@H](O[C@H]2[C@@H](O)[C@H](O[C@@H]3[C@@H](O)[C@H](N)C[C@H](N)[C@H]3O[C@H]3O[C@H](CN)[C@@H](O)[C@H](O)[C@H]3N)O[C@@H]2CO)[C@H](N)[C@@H](O)[C@@H]1O"
  inhibitory zone, Eschrichia coli / millimeters: 3

Quick batch: inhibitory zone, Eschrichia coli for everything below.
1. [Cl-].[Cl-].[Zn+2] [Sample 1, Zinc Chloride]
2. O=S(=O)([O-])[O-].[Zn+2] [Sample 4, Zinc Sulfate]

Result:
[4, 3.5]

Quick batch: inhibitory zone, Eschrichia coli for everything below.
1. CN(C)[C@@H]1C(O)=C(C(N)=O)C(=O)[C@@]2(O)C(O)=C3C(=O)c4c(O)cccc4[C@@](C)(O)[C@H]3C[C@@H]12
2. Cc1cc(NS(=O)(=O)c2ccc(N)cc2)no1

Result:
[5.5, 3]

----------
System: Staphlococcus aureus
protocol: Zone inhibition assay (filter paper disc area diffusion)
Assay type: cell-based
measurement-conditions: distance from edge of disc to bacterial growth; discs saturated with 100 mg/ml solution (antibiotic control discs 5-30 μg); 24 hours at 37° C.
quantity-name: inhibitory zone, Staphlococcus aureus

See these solved cases before continuing.
- molecule: "O=C([O-])CC(O)(CC(=O)[O-])C(=O)[O-].[Na+].[Na+].[Na+] [Sample 18, Sodium Citrate]"
  quantity-name: "inhibitory zone, Staphlococcus aureus"
  result: "no activity"
- molecule: "NCC(=O)[O-].[Na+] [Sample 16, Sodium Glycinate]"
  quantity-name: "inhibitory zone, Staphlococcus aureus"
  result: "no activity"
- molecule: "[Cl-].[Na+] [Sample 14, Sodium Chloride]"
  quantity-name: "inhibitory zone, Staphlococcus aureus"
  result: "no activity"
- molecule: "O=S(=O)([O-])[O-].[Na+].[Na+] [Sample 17, Sodium Sulfate]"
  quantity-name: "inhibitory zone, Staphlococcus aureus"
  result: "no activity"
- molecule: "CC(=O)[O-].[Na+] [Sample 15, Sodium Acetate]"
  quantity-name: "inhibitory zone, Staphlococcus aureus"
  result: "no activity"

Entry `CN[C@H](CC(C)C)C(=O)N[C@H]1C(=O)N[C@@H](CC(N)=O)C(=O)N[C@H]2C(=O)N[C@H]3C(=O)N[C@H](C(=O)N[C@H](C(=O)O)c4cc(O)cc(O)c4-c4cc3ccc4O)[C@H](O)c3ccc(c(Cl)c3)Oc3cc2cc(c3O[C@@H]2O[C@H](CO)[C@@H](O)[C@H](O)[C@H]2O[C@H]2C[C@](C)(N)[C@H](O)[C@H](C)O2)Oc2ccc(cc2Cl)[C@H]1O` , tested on Staphlococcus aureus, has a reported inhibitory zone, Staphlococcus aureus of 5 millimeters

The origin of these recorded values is patent US7582418B2.
